The reported numbers originate from patent US20080267974A1.

# System Name: tumor necrosis factor alpha (TNFα) (human, UniProt P01375 77-233)
# Sequence (P01375 77-233 limits assumed): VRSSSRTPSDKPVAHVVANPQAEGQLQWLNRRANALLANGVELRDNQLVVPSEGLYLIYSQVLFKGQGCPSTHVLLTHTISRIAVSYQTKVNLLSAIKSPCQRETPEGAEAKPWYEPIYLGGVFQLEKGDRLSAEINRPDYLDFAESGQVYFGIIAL
# Assay Protocol: affinity by IC50 ELISA (so named in paragraph 380)
Measured Metric: Affinity (nM)
Your answer is read as nM, so omit the unit and give the number.

Binder	Affinity, nM
MAb 1029 (antibody, V domains shown, IgG1/kappa, CHO; also called H1479/L250) VH: EVQLLESGGGLIQPGGSLRLSCAASGFTVSSNYMSWVRQAPGKGLEWVSVIYSGGRTYYADSVKGRFTISRDSSKNTLYLQMNSLRAEDTAVYYCARLYYGSTYDYWGQGTLVTVSS VL: EIVLTQSPVTLSVPPGERASLSCRASQNIYTAVAWYQQKPGQAPRLLIYGASTRATGIPARFSGGGSGTDYTLTISSLESEDFAVYHCQQYHSWPLTFGGGTKLEIK	0.36

Documented Affinity of MAb 1038 (antibody, V domains shown, IgG1/kappa, CHO; also called H1483/L250) VH: EVQLLESGGGLIQPGGSLRLSCAASGFTVSSNYMSWVRQAPGKGLEWVSVIYSGGRTYYADSVKGRFTISRDSSKNTLYLQMNSLRAEDTAVYYCARNYYGSTMDYWGQGTLVTVSS VL: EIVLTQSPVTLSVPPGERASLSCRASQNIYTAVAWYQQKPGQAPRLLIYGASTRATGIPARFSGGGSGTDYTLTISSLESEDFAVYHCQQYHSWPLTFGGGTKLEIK : 0.25

Documented Affinity of MAb 892 (antibody, V domains shown, IgG1/kappa, CHO; also called H1388/L250) VH: EVQLLESGGGLIQPGGSLRLSCAASGFTVSSNYMSWVRQAPGKGLEWVSVIYSGGRTYYADSVKGRFTISRDSSKNTLYLQMNSLRAEDTAVYYCARNYYGSLYDYWGQGTLVTVSS VL: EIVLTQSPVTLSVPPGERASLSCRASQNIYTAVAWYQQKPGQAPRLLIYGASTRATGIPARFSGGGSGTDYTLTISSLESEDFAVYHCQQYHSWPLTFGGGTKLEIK : 0.43
